molecular target: T1, biotinylated PD1-ECD-AviHis (human, UniProt Q15116 25-170, biotinylated); experiment: ELISA (hu PD1, as described above)
T1 construct: also called huPD1; hu PD1; not shown: Avi-His tag
T1 sequence (Q15116 25-170): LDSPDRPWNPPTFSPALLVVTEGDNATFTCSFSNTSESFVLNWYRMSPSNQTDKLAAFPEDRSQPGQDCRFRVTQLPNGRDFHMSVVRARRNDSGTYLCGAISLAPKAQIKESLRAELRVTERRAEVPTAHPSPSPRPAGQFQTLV

| binder | EC50 |
| --- | --- |
| PD1-0103-0314 (antibody, human IgG1, V domains shown, Humanized; also called PD1-103-0314; PD-0103-0314) VH: EVQLLESGGGLVQPGGSLRLSCAASGFSFSSYTMSWVRQAPGKGLEWVATISGGGRDIYYPDSVKGRFTISRDNSKNTLYLQMNSLRAEDTAVYYCVLLTGRVYFALDSWGQGTLVTVSS VL: EIVLTQSPATLSLSPGERATLSCRASESVDTSDNSFIHWYQQKPGQSPRLLIYRSSTLESGIPARFSGSGSGTDFTLTISSLEPEDFAVYYCQQNYDVPWTFGQGTKVEIKR | 0.07 nM |
